Origin of measurements: ChEMBL document CHEMBL1121968

Experiment: In vitro antiproliferative activity was measured in mouse L1210 lymphoid leukemia cell line
Conditions: read-out: ED50 (the source's name)
Entries whose EC50 is below 10 µM take MET; entries at or above 10 µM take NOT MET.

Decide: EC50 of CCCCCCCCCCCCCCCC(=O)OC[C@H](COP(=O)(O)OC[C@H]1O[C@@H](n2ccc(N)nc2=O)[C@@H](O)[C@@H]1O)OC(=O)CCCCCCCCCCCCCCC strictly below 10 µM?
NOT MET

Given CCCCCCCCCCCCCC(=O)OC[C@H](COP(=O)(O)OP(=O)(O)OC[C@H]1O[C@@H](n2ccc(N)nc2=O)[C@@H](O)[C@@H]1O)OC(=O)CCCCCCCCCCCCC , is recorded EC50 strictly lower than 10 µM?
NOT MET

Does the reported EC50 of the following compound sit strictly below 10 µM? CCCCCCCCCCCCCCCC(=O)OC[C@H](COP(=O)(O)OP(=O)(O)OC[C@H]1O[C@@H](n2ccc(N)nc2=O)[C@@H](O)[C@@H]1O)OC(=O)CCCCCCCCCCCCCCC
MET

Is the reported EC50 for CCCCCCCCCCCCCCCCCC(=O)OC[C@H](COP(=O)(O)OP(=O)(O)OC[C@H]1O[C@@H](n2ccc(N)nc2=O)[C@@H](O)[C@@H]1O)OC(=O)CCCCCCCCCCCCCCCCC strictly below 10 µM?
NOT MET

Decide: EC50 of Nc1ccn([C@@H]2O[C@H](CO)[C@@H](O)[C@@H]2O)c(=O)n1 strictly below 10 µM?
MET
